# credit: paper PMC10786891

- assayed_target: T1, EsCas13d, nuclease-dead (Eubacterium siraeum, UniProt B0MS50, R295A;H300A;R849A;H854A)
- T1 sequence: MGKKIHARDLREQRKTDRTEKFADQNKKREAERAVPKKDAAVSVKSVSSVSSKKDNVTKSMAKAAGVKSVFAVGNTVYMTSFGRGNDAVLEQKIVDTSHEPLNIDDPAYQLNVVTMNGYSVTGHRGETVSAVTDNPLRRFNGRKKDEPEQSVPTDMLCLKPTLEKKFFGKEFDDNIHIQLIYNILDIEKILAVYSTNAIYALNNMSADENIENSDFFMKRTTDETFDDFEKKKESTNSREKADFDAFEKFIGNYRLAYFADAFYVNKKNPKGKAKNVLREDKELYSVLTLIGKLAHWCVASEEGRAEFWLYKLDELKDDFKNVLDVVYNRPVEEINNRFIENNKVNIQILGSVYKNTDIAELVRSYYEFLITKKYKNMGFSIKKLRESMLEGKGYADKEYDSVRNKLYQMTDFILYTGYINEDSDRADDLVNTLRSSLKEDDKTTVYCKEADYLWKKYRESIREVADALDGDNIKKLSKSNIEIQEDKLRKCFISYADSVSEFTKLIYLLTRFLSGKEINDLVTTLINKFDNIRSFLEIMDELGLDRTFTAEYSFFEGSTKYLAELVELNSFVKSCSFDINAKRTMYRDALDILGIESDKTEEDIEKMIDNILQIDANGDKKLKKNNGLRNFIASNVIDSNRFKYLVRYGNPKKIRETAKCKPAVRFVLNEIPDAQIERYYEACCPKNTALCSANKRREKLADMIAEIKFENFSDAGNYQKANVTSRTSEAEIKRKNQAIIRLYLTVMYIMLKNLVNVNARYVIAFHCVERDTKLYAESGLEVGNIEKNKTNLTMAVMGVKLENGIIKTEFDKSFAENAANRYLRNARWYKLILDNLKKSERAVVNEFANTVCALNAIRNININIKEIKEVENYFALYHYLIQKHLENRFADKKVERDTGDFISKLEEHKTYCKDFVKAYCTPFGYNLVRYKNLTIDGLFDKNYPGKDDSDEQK
- run_description: crRNA (strand 1, pre-loaded); Mg2+; 40 mM Tris-HCl pH 7.5, 150 mM NaCl, 6 mM MgCl2, 1 mM DTT, 0.1% Tween-20, 0.2 mg/ml BSA; 25 C; 10 min per concentration, then washed
- recorded_conditions: tags: His6-TwinStrep-SUMO cleaved; N-terminal SNAP kept (SNAP-Surface 488); label: 3' end held by stalled T7 RNA polymerase
measured_parameter: pKd
Numbers only, as −log10 of the molar value.

[[record]]
binder = "target 2 MT 5'PFS AUA 3'PFS CAA (mixed) RNA 1: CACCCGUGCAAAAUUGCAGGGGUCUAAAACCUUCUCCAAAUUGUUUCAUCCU RNA 2: GGGAAUGGAUCCACAUCUACGAAUUCAUAAGGAUGAAACAAUUUGGAGAAGCAAAGAUCGGAAGAGCACACGU"
measured_parameter = "pKd"
reported_value = 8.34

[[record]]
binder = "target 1 insG 3' of 18,insA 3' of 7 (mixed) RNA 1: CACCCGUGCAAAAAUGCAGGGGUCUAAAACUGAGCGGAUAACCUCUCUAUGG RNA 2: GGGAAUGGAUCCACAUCUACGAAUUCGUACCAUAGGAGAGGUUAUCACGCUCACCGAGAUCGGAAGAGCACACGU"
measured_parameter = "pKd"
reported_value = 7.37


With those in mind, consider the next binder.
Given the binder target 1 insU 3' of 21,insU 3' of 9 (mixed) RNA 1: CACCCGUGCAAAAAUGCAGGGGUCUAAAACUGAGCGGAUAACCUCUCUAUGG RNA 2: GGGAAUGGAUCCACAUCUACGAAUUCGUACCUAUAGAGAGGUUAUUCCGCUCACCGAGAUCGGAAGAGCACACGU , what is its reported pKd? 7.43
